- Tested on: Streptococcus agalactiae
- assay.details: Antimicrobial activity against Streptococcus agalactiae clinical isolates by agar dilution method
- Type: functional
reported.metric: MIC50
Please report the result as a number followed by the unit.

// below: answered molecules
CC1(C)S[C@@H]2[C@H](NC(=O)[C@H](N)c3ccccc3)C(=O)N2[C@H]1C(=O)O | 0.125 µg/mL
CN(C)CCn1nnnc1SCC1=C(C(=O)O)N2C(=O)[C@@H](NC(=O)Cc3csc(N)n3)[C@H]2SC1 | 0.5 µg/mL
CC1(C)S[C@@H]2[C@H](NC(=O)[C@H](N)c3ccc(O)cc3)C(=O)N2[C@H]1C(=O)O | 0.063 µg/mL

Field MIC50 (entry C=CC1=C(C(=O)O)N2C(=O)[C@@H](NC(=O)/C(=N\O)c3csc(N)n3)[C@H]2SC1 ) reads 0.031 µg/mL

// provenance: ChEMBL document CHEMBL1649463
